tested on: LCLC-97TM1; experiment: relative viability (nuclei count vs DMSO), 5 days (fraction); higher = more cells survive; details: first compound 0.03162 µM
Reported relative viability values are given for each entry in this list.
The answer should be written as a number, with no unit following it.

compound: CC(C)Oc1cc(Nc2nc(N[C@@H](C)c3ccc(F)cn3)ncc2Cl)n[nH]1 [AZ23] + Nc1nc2[nH]cc(CCc3ccc(C(=O)N[C@@H](CCC(=O)O)C(=O)O)cc3)c2c(=O)[nH]1 [Pemetrexed] (partner 0.2 µM)
relative viability: 0.193

compound: CC(C)Oc1cc(Nc2nc(N[C@@H](C)c3ccc(F)cn3)ncc2Cl)n[nH]1 [AZ23] + Cc1cc(Nc2cc(N3CCN(C)CC3)nc(Sc3ccc(NC(=O)C4CC4)cc3)n2)n[nH]1 [Tozasertib] (partner 0.1 µM)
relative viability: 0.266

compound: CC(C)Oc1cc(Nc2nc(N[C@@H](C)c3ccc(F)cn3)ncc2Cl)n[nH]1 [AZ23] + COc1cccc2cc(-c3nc([C@H]4CC[C@H](C(=O)O)CC4)n4ncnc(N)c34)[nH]c12 [OSI-027] (partner 0.5 µM)
relative viability: 0.519

compound: CC(C)Oc1cc(Nc2nc(N[C@@H](C)c3ccc(F)cn3)ncc2Cl)n[nH]1 [AZ23] + CC(C)C[C@H](NC(=O)[C@H](Cc1ccccc1)NC(=O)c1cnccn1)B(O)O [Bortezomib] (partner 0.002 µM)
relative viability: 1

compound: CC(C)Oc1cc(Nc2nc(N[C@@H](C)c3ccc(F)cn3)ncc2Cl)n[nH]1 [AZ23] + C[C@]1(O)C[C@@H](c2nc(-c3ccc4ccc(-c5ccccc5)nc4c3)c3c(N)nccn32)C1 [Linsitinib] (partner 1 µM)
relative viability: 0.17

The recorded relative viability for entry CC(C)Oc1cc(Nc2nc(N[C@@H](C)c3ccc(F)cn3)ncc2Cl)n[nH]1 [AZ23] + Nc1ncn([C@H]2C[C@H](O)[C@@H](CO)O2)c(=O)n1 [Decitabine] (partner 2 µM) equals 0.212

====

Reported relative viability values are given for each entry in this list.
system: LXF-289; test: relative viability (nuclei count vs DMSO), 5 days (fraction); higher = more cells survive; details: first compound 0.04 µM
The answer should be written as a number, with no unit following it.

Known relative viability results, listed for orientation:
compound: Clc1ccc(Nc2nnc(Cc3ccncc3)c3ccccc23)cc1 [Vatalanib] + CC(=O)Nc1cccc(-n2c(=O)n(C3CC3)c(=O)c3c(Nc4ccc(I)cc4F)n(C)c(=O)c(C)c32)c1 [Trametinib] (partner 0.02 µM)
tgt: LXF-289
recorded endpoint: relative viability
assay result: 0.688
--
compound: COc1cc(N2CCC(C(N)=O)CC2)ccc1Nc1nc(N)c(Cl)c(Nc2ccccc2S(=O)(=O)C(C)C)n1 [HG-5-88-01] + COc1cc2c(Oc3ccc(NC(=O)C4(C(=O)Nc5ccc(F)cc5)CC4)cc3F)ccnc2cc1OCCCN1CCOCC1 [Foretinib] (partner 0.25 µM)
tgt: LXF-289
recorded endpoint: relative viability
assay result: 1.04
--
compound: Clc1ccc(Nc2nnc(Cc3ccncc3)c3ccccc23)cc1 [Vatalanib] + CS(=O)(=O)N1CCN(Cc2cc3nc(-c4cccc5[nH]ncc45)nc(N4CCOCC4)c3s2)CC1 [Pictilisib] (partner 1 µM)
tgt: LXF-289
recorded endpoint: relative viability
assay result: 0.894
--
compound: Clc1ccc(Nc2nnc(Cc3ccncc3)c3ccccc23)cc1 [Vatalanib] + Nc1ncn([C@H]2C[C@H](O)[C@@H](CO)O2)c(=O)n1 [Decitabine] (partner 2 µM)
tgt: LXF-289
recorded endpoint: relative viability
assay result: 0.368

Next compound, relative viability to be filled in.
The recorded relative viability for entry C[C@@H]1CN(CC(=O)Nc2ccc3c(c2)Cc2cccc(-c4cc(=O)cc(N5CCOCC5)o4)c2S3)C[C@H](C)O1 + Cc1nc(NC(=O)N2CCC[C@H]2C(N)=O)sc1-c1ccnc(C(C)(C)C(F)(F)F)c1 [Alpelisib] (partner 2 µM) equals 1.04
